System: Staphylococcus aureus subsp. aureus (ATCC29213)
Experiment: MIC, broth microdilution (CLSI), Staphylococcus aureus subsp. aureus ATCC29213
Format: cell-based
Settings: ATCC29213, Table 15, read-out: S. aureus ("wound") (MIC)
Structures can show the parent of a compound that is named as a salt.
Below: a set of entries, each annotated with reported MIC.
Number in µg/mL, nothing else.

Previously resolved entries follow.
MOLECULE	MIC / µg/mL
N#Cc1ccc2c(c1)Sc1cc(C(F)(F)F)cc(NC3CCN(CCN)CC3)c1N2	4
NC1CCCC(C(=O)Nc2cc(C(F)(F)F)cc3c2Nc2ccncc2S3)C1 (stereo not shown)	64
NCCN1CCN(c2ccc3c(c2)Sc2cc(C(F)(F)F)cc(NC4CCNCC4)c2N3)CC1 [compound 269, hydrochloride]	16

Proceed to the following item.
# MIC (molecule: NCCCN1c2ccc(N3CCN(CCN)CC3)cc2Sc2cc(C(F)(F)F)ccc21 [compound 266, hydrochloride] ) is 16
